Biological target: T1, human SLITRK6 on cells (human, UniProt Q9H5Y7 27-841)
T1 construct: whole, on cells
Test: flow cytometry on RT4 cells, PE-conjugated anti-human Fc
# Lookup of reported EC50 (read off the curve) keyed by entry

{"BINDER": "hu1H2-03 with a LALA mutation (hu1H2-03-LALA) (antibody, V domains shown) VH: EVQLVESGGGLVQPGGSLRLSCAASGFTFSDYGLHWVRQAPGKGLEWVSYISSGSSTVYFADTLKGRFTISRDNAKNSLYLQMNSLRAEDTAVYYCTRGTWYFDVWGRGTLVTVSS VL: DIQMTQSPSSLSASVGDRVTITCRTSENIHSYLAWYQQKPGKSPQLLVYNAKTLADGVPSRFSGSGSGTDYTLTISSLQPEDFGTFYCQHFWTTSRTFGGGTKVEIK", "EC50 (read off the curve)": "~0.3 nM"}
{"BINDER": "Sirtratumab (antibody, V domains shown, Prior-art benchmark antibody; also called Sirtratuzumab) VH: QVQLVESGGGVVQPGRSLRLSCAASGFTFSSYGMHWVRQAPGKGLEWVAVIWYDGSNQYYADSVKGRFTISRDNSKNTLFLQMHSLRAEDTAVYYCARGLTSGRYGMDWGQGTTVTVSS VL: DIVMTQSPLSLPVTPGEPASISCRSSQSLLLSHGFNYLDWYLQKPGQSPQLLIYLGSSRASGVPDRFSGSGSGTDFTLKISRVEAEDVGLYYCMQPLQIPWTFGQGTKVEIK", "EC50 (read off the curve)": "~0.3 nM"}
{"BINDER": "hu1H2-03-LD343 (8) (antibody, V domains shown, drug-linker LD343 on cysteines freed by TCEP reduction, DAR 8.0; positions not given) VH: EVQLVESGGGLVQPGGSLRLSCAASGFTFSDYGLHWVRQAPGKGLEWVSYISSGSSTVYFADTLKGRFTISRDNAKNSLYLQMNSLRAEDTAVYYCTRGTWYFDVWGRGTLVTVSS VL: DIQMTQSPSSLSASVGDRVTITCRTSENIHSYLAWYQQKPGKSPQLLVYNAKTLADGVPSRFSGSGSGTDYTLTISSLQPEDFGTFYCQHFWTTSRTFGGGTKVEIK", "EC50 (read off the curve)": "~0.4 nM"}
{"BINDER": "AGS15E (antibody, V domains shown, drug conjugate; drug-linker and positions not given, also called ADC of Sirtratumab) VH: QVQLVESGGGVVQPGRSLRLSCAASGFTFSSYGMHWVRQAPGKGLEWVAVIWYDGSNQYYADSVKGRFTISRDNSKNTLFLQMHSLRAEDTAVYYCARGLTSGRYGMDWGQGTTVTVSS VL: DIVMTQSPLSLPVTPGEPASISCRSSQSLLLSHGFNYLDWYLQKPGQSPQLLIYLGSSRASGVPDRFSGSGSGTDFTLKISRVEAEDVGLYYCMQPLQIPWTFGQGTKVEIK", "EC50 (read off the curve)": "~0.3 nM"}
